condition.context: in methanol, 323.49 K
parameter: solubility (mole fraction)
Form rule: numeric answer, no unit written next to it.

Query: Using known records, supply solubility (mole fraction) for O=C(O)c1ccccc1
Reply: 0.241
